meta.source: the supplement of paper PMC10065799

Tested on: c-Src
Assay: phosphorylation enrichment, bacterial display (enrichment ratio); higher = better substrate or ligand; peptides without Tyr show the background;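 further: 11-residue human phosphosite peptides and single-mutation variants displayed on the E. coli surface, counted by deep sequencing, each peptide's frequency after selection divided by its frequency in the unselected input library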;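 further: frequency after pTyr selection over input frequency; kinase dosed for 20-30% of maximal phosphorylation in three min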
readout: phosphorylation enrichment
Would you mind answering with just the numeric figure?

Please review the following examples before continuing.
macromolecule sequence: NFDRIYIFHLR [MYOF_Y1137_V1136I_YF]
endpoint value: 0.724

macromolecule sequence: EKIANYKEGTF [CLRN1_Y171_YF]
endpoint value: 0.5

macromolecule sequence: EDNPEYMRLRN [ADD2_Y31_D28N]
endpoint value: 0.459

macromolecule sequence: CSEEMYCLMLQ [RET_Y981_R982C]
endpoint value: 2.26

macromolecule sequence: PKGWNYELPAT [PROM1_Y34_A31G]
endpoint value: 0.383

q: phosphorylation enrichment lookup needed for FSAPNYCFRCG [PPP2CA_Y265_YF] , thanks.
a: 0.343

q: phosphorylation enrichment lookup needed for FVPSNYVAEDR [FRK_Y104_I100V_YF] , thanks.
a: 0.35

q: phosphorylation enrichment lookup needed for AISEGYKDFRA [CDA_Y79_V75I] , thanks.
a: 0.499

q: phosphorylation enrichment lookup needed for IAINKYEVSLI [MYO7A_Y2136_G2137E] , thanks.
a: 0.451

q: phosphorylation enrichment lookup needed for LSIDRYHAIVY [NPSR1_Y147] , thanks.
a: 0.89

* * *

Target: FGFR1 (UniProt P11362)
Sequence (P11362 whole entry, looked up): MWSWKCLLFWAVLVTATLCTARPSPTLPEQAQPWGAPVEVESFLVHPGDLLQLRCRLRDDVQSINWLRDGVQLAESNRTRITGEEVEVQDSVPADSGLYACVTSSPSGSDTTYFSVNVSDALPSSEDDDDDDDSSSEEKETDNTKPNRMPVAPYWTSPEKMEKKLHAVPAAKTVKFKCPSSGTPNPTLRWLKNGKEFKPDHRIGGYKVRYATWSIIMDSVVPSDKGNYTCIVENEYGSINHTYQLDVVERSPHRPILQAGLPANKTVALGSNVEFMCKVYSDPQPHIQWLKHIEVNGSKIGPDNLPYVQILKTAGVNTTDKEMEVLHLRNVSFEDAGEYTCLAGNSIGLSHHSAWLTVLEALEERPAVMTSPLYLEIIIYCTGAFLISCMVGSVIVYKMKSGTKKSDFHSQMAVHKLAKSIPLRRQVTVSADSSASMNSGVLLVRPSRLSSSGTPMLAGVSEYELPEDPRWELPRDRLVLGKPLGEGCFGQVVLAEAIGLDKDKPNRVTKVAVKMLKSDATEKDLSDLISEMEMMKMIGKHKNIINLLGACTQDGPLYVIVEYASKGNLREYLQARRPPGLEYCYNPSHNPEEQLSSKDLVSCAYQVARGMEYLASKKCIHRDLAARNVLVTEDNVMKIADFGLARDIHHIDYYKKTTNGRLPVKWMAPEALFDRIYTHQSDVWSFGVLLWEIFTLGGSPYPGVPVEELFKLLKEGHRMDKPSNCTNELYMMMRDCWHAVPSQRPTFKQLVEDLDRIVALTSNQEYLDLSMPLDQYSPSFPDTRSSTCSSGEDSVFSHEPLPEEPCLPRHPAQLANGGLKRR
Test: phosphorylation enrichment, bacterial display (enrichment ratio); higher = better substrate or ligand; peptides without Tyr show the background
I would appreciate it if you labelled entries condition met when phosphorylation enrichment is 0.5 or higher, otherwise condition not met.

q: Does NALAQYQEMEK [BBS4_Y395] have a reported phosphorylation enrichment of at least 0.5?
a: condition met

q: Does DENRFYTRAAS [RPS19_Y54_W52R] have a reported phosphorylation enrichment of at least 0.5?
a: condition met

q: Does PEADKYHLTYA [FGG_Y300_R301H] have a reported phosphorylation enrichment of at least 0.5?
a: condition met

q: Does FLAVGYHKPHI [IDS_Y225] have a reported phosphorylation enrichment of at least 0.5?
a: condition not met

* * *

Target: EPHB1 (UniProt P54762)
Sequence (P54762 whole entry, looked up): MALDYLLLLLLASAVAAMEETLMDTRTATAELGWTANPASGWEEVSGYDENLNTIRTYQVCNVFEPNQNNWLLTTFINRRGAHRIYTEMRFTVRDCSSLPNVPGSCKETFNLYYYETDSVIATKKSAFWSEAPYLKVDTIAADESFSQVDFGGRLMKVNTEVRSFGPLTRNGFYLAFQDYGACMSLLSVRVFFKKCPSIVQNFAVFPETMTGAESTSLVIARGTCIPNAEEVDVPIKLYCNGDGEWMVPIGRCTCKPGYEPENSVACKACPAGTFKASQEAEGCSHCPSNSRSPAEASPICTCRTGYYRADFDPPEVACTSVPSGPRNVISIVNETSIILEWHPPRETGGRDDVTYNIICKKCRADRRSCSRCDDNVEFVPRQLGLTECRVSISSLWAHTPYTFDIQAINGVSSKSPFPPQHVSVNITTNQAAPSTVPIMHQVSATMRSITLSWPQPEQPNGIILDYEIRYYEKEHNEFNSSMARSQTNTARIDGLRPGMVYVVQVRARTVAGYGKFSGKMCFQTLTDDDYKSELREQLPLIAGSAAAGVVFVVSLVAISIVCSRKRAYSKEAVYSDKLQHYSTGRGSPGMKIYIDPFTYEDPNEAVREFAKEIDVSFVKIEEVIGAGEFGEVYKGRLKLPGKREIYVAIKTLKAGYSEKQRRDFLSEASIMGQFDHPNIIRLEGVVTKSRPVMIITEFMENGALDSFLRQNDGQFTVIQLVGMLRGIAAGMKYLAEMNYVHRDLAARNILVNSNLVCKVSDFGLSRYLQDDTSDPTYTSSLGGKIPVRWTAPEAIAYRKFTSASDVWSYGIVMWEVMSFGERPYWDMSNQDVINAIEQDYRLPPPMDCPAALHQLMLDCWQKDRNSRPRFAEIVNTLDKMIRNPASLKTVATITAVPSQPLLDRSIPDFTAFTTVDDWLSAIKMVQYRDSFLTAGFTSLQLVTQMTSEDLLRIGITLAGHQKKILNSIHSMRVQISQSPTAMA
Test: phosphorylation enrichment, bacterial display (enrichment ratio); higher = better substrate or ligand; peptides without Tyr show the background
readout: phosphorylation enrichment

macromolecule sequence: IENKLYGMSDP [RET_Y1062]
phosphorylation enrichment: 0.506

q: API: value(readout= phosphorylation enrichment, system= EPHB1 (UniProt P54762), query= QLPRGYISILV [BAG3_Y205_P209L] )
a: 0.583

q: API: value(readout= phosphorylation enrichment, system= EPHB1 (UniProt P54762), query= VVHSSYDEIEG [SEC24A_Y263] )
a: 0.51

q: API: value(readout= phosphorylation enrichment, system= EPHB1 (UniProt P54762), query= LTSKPYAFTAR [NDUFS1_Y236] )
a: 0.617

q: API: value(readout= phosphorylation enrichment, system= EPHB1 (UniProt P54762), query= RQAQAYRGQRV [TSHR_Y706] )
a: 0.564

q: API: value(readout= phosphorylation enrichment, system= EPHB1 (UniProt P54762), query= VNCHQYDGLVE [ATP2A2_Y407] )
a: 0.658

q: API: value(readout= phosphorylation enrichment, system= EPHB1 (UniProt P54762), query= KLQKYYRQNPD [EHHADH_Y683] )
a: 0.765
